Overview of recorded TGI for various compounds
Test system: M14 melanoma
Assay: NCI tumour cell line growth inhibition, 48 h

{"COMPOUND": "O=C1NC(N2CCOCC2)=N/C1=C\\c1cccs1", "TGI": "> 100 µM"}
{"COMPOUND": "CCN(CC)CCOc1ccc(C(=C(C)c2ccc(Cl)cc2)c2ccc(OCCN(CC)CC)cc2)cc1", "TGI": "1.14 µM"}
{"COMPOUND": "O=C(NO)c1ccc([N+](=O)[O-])cc1", "TGI": "> 100 µM"}
{"COMPOUND": "C=CCONC(=O)c1ccc(Cl)cc1", "TGI": "> 100 µM"}
{"COMPOUND": "CCOC(=O)/C(O)=C(/C=N\\C(=S)Nc1ccccc1Cl)C(=O)OCC", "TGI": "> 100 µM"}
{"COMPOUND": "O=C1CC(=O)NC(=NN2C(=O)CSC2c2ccc(Cl)c(Cl)c2)N1 (stereo not given)", "TGI": "> 100 µM"}
{"COMPOUND": "COC(=O)[C@H](Cc1ccccc1)NC(=O)NCCN(CCNC(=O)N[C@@H](Cc1ccccc1)C(=O)OC)C(=O)N[C@@H](Cc1ccccc1)C(=O)OC", "TGI": "45.7 µM"}
{"COMPOUND": "CC1=C(C(=O)Nc2cccc3c2C(=O)NC3=O)CC(C(=O)Nc2cccc3c2C(=O)NC3=O)=C(C)N1", "TGI": "> 100 µM"}
{"COMPOUND": "CC#COP(=O)(OCC)OCC", "TGI": "> 100 µM"}
{"COMPOUND": "CC[C@](C)(O)C(=O)O[C@H]1C(=O)O[C@@H]2C[C@H]3C(C)=CC(=O)[C@@H](O)[C@]3(C)[C@H]3[C@@]4(O)OC[C@]32[C@@H]1[C@@H](C)[C@H]4O", "TGI": "0.396 µM"}
{"COMPOUND": "O=C1C(Cl)=C(N/N=c2/[nH][nH]/c(=N/NC3=C(Cl)C(=O)c4ccccc4C3=O)c3ccccc23)C(=O)c2ccccc21", "TGI": "34.8 µM"}
{"COMPOUND": "Fc1ccc(-c2nc3n(c2-c2ccncc2)CCS3)cc1", "TGI": "> 25 µM"}
{"COMPOUND": "CCCCc1ccc(Nc2nc(Cl)c3c(ncn3COCCOC(C)=O)n2)cc1", "TGI": "34 µM"}
{"COMPOUND": "O=C(NCCCCCCNC(=O)c1cccc2ccccc12)c1cccc2ccccc12", "TGI": "> 100 µM"}
{"COMPOUND": "COC12C=CC(CC1)c1c(O)ccc(O)c12 (stereo not given)", "TGI": "> 100 µM"}
{"COMPOUND": "COc1ccc(Br)c2c1CC(C(=O)O)CC2 (stereo not given)", "TGI": "> 100 µM"}
{"COMPOUND": "O=c1[nH]c(=O)n(C2OC(CO)C(O)C(F)C2O)cc1F (stereo not given)", "TGI": "> 100 µM"}
{"COMPOUND": "O=C(O)CS(=O)(=O)C(c1ccccc1)c1ccccc1", "TGI": "> 100 µM"}
{"COMPOUND": "CCCC(O)[C@@H](O)c1ccc2c(c1O)C(=O)c1c(OC)cccc1C2=O (stereo not given in full)", "TGI": "69.1 µM"}
{"COMPOUND": "O=S(=O)([O-])[O-].[Fe+2].c1ccc(/C(=N\\Nc2ccccn2)c2ccccn2)cc1", "TGI": "4.89 µM"}

* * *

Test system: A498 renal
Test: NCI tumour cell line growth inhibition, 48 h; in the data active = GI50 below about 0.43 µM; inactive = the rest
Labels: active, inactive

{"COMPOUND": "Nc1nc(/C=C\\c2ccc([N+](=O)[O-])o2)nc(N2CCN(c3ccccc3)CC2)n1", "CLASSIFICATION": "inactive"}
{"COMPOUND": "CN(C)CCNC(=O)c1cccn2c(=O)c3cc4ccccc4cc3nc12", "CLASSIFICATION": "active"}
{"COMPOUND": "CCn1c(-c2nonc2N)nc2cncc(C(=O)N3CCNCC3)c21", "CLASSIFICATION": "inactive"}
{"COMPOUND": "CCN(CC)CCOc1ccc(C(=C(C)c2ccc(Cl)cc2)c2ccc(OCCN(CC)CC)cc2)cc1", "CLASSIFICATION": "inactive"}
{"COMPOUND": "C=C(C)[C@@H]1CC[C@]2(C(=O)NCCCN)CC[C@]3(C)[C@H](CC[C@@H]4[C@@]5(C)CC[C@H](O)C(C)(C)[C@@H]5CC[C@]43C)[C@@H]12", "CLASSIFICATION": "inactive"}
{"COMPOUND": "COc1cc(Cn2cc3c(c2)-c2oncc2CC3)cc(OC)c1OC", "CLASSIFICATION": "active"}
{"COMPOUND": "Cc1ccc2[nH]c(C(=O)NN3C(=O)CSC34CCCCC4C)c(-c3ccccc3)c2c1 (stereo not given)", "CLASSIFICATION": "inactive"}
{"COMPOUND": "CCc1c(C)[nH]c(/C=C2\\N=C(c3ccc[nH]3)C=C2OC)c1C", "CLASSIFICATION": "inactive"}
{"COMPOUND": "COc1ccc2c(c1)CCC1C2CCC2(C)C1CCC2(O)CNC(=O)CCCCC1CCSS1 (stereo not given)", "CLASSIFICATION": "inactive"}
{"COMPOUND": "CCCN1C(=O)/C(=c2\\sc3n(c2=O)C2C(NN=3)N(CC)C(=O)N2CC)c2ccccc21 (stereo not given)", "CLASSIFICATION": "active"}

* * *

Tested on: 786-0 renal
Test: NCI tumour cell line growth inhibition, 48 h

{"MOLECULE": "CC1=C(C(=O)Nc2cccc3c2C(=O)NC3=O)CC(C(=O)Nc2cccc3c2C(=O)NC3=O)=C(C)N1", "TGI": "> 100 µM"}
{"MOLECULE": "COc1cc(NC(C)=O)c2[nH]c3c(C)cc(NC(C)=O)c(C)c3c2c1", "TGI": "> 100 µM"}
{"MOLECULE": "CCOC(=O)CCC(NC(=O)Cc1ccc(Nc2nc3ccccc3nc2-c2ccccc2)cc1)C(=O)OCC (configuration not stated)", "TGI": "> 100 µM"}
{"MOLECULE": "COc1cc(/C=C\\c2ccccn2)cc(OC)c1OC", "TGI": "> 100 µM"}
{"MOLECULE": "NC(=O)C(Nc1c(Cl)cccc1Cl)c1cc2cc(Br)ccc2nc1Cl (configuration not stated)", "TGI": "> 100 µM"}
{"MOLECULE": "CCc1ccc(NC(=O)Nc2c[nH]c3ccccc23)cc1", "TGI": "> 81.9 µM"}
{"MOLECULE": "Cc1nc2sc(CCl)nn2c(=O)c1Cl", "TGI": "22.4 µM"}
{"MOLECULE": "COc1ccc(/C=C(\\Cl)c2ccc(OC)c(OC)c2)cc1OC", "TGI": "> 100 µM"}
{"MOLECULE": "N#CSc1ncnc2nc[nH]c12", "TGI": "> 100 µM"}
{"MOLECULE": "CC1=CC(=O)c2c(O)cccc2C1=O", "TGI": "3.01 µM"}
{"MOLECULE": "N#CC(C#N)=Cc1ccc(-c2ccc(-c3nc4ccccc4s3)cc2)o1", "TGI": "16 µM"}
{"MOLECULE": "COc1cc2cc(C(=O)N3CC(CCl)c4c3cc(NC(=O)C(C)(C)c3ccccc3[N+](=O)[O-])c3ccccc43)[nH]c2c(OC)c1OC (configuration not stated)", "TGI": "> 600 µM"}
{"MOLECULE": "O=c1cc(CNc2cc(F)cc(F)c2)c2ccc(I)cc2[nH]1", "TGI": "> 100 µM"}
{"MOLECULE": "O=C(CCl)c1ccc([N+](=O)[O-])o1", "TGI": "10.9 µM"}
{"MOLECULE": "COc1cc2nc(Cl)nc(Nc3cccc(C(=O)/C=C/c4ccccc4)c3)c2cc1OC", "TGI": "15 µM"}
{"MOLECULE": "CCOC(=O)C(c1c[nH]c2ccccc12)(c1c[nH]c2ccccc12)c1c[nH]c2ccccc12", "TGI": "> 100 µM"}
{"MOLECULE": "Oc1ccccc1/C=N/Nc1nnc2c3ccccc3c3ccccc3c2n1", "TGI": "> 100 µM"}

* * *

Test system: SF-295 CNS
Experiment: NCI tumour cell line growth inhibition, 48 h
*1 amine or outer side, *2 acyl side, *3 side chain or, on linkers, in order; H or OH if unused. Where a SMILES comes first, the peptide text is derived from it. Bridges are numbered along the chain shown (N, C = ends). [ ]: non-standard residue; d: D form. The star is where a group is joined. X38 = CC[C@H](C)[C@@H](N[*:1])[C@@H](O)CC(=O)[*:2]; NMeY = CN[C@@H](Cc1ccc(O)cc1)C(=O)O; dNMeL = CN[C@H](CC(C)C)C(=O)O; Hiv = CC(C)[C@H](O)C(=O)O; Pyruvoyl = CC(=O)C(=O)*

{"COMPOUND": "C[C@@]12C=CC3C/C(=N\\C(N)=S)C=C(CCCC4OCCO4)[C@]3(CC1)C2 (stereo not given in full)", "TGI": "88 µM"}
{"COMPOUND": "O=C(CCl)c1ccc([N+](=O)[O-])o1", "TGI": "17.4 µM"}
{"COMPOUND": "O=C(NO)c1ccc([N+](=O)[O-])cc1", "TGI": "> 100 µM"}
{"COMPOUND": "NCCCCNCCCN1CC1", "TGI": "> 100 µM"}
{"COMPOUND": "CN(C)c1ccc(-c2c(C#N)c(N)[nH]c(=S)c2C#N)cc1", "TGI": "> 100 µM"}
{"COMPOUND": "C[C@H]1[C@H](C)N(Cc2ccccc2)P(=O)(C(O)/C=C/c2ccccc2)N1Cc1ccccc1 (stereo not given in full)", "TGI": "20.1 µM"}
{"COMPOUND": "COc1ccc(Br)c2c1CC(C(=O)O)CC2 (stereo not given)", "TGI": "> 100 µM"}
{"COMPOUND": "Cc1nn2c(=O)c([N+](=O)[O-])c(/C=C/c3ccccc3)nc2s1", "TGI": "> 100 µM"}
{"COMPOUND": "NC(=S)NNC(=O)/C(=C/c1ccc(/C=C(\\NC(=O)c2ccccc2)C(=O)NNC(N)=S)cc1)NC(=O)c1ccccc1", "TGI": "> 100 µM"}
{"COMPOUND": "CCN(CC)c1ccc(/C=C/c2cc(C)c3ccccc3n2)cc1", "TGI": "5.72 µM"}
{"COMPOUND": "CC[C@H](C)[C@H]1NC(=O)[C@@H](NC(=O)[C@@H](CC(C)C)N(C)C(=O)[C@@H]2CCCN2C(=O)C(C)=O)[C@@H](C)OC(=O)[C@H](Cc2ccc(OC)cc2)N(C)C(=O)[C@@H]2CCCN2C(=O)[C@H](CC(C)C)NC(=O)[C@H](C(C)C)OC(=O)C[C@@H]1O (Pyruvoyl-P[dNMeL]T[X38][Hiv]LP[NMeY](Me); ester 3-C)", "TGI": "0.525 µM"}
{"COMPOUND": "COC(=O)CCC(=O)N1Cc2cc(C)ccc2N(C(=O)CCC(=O)OC)Cc2cc(C)ccc21", "TGI": "> 100 µM"}
{"COMPOUND": "Cc1c2cnccc2c(C)c2c1[nH]c1ccc(O)cc12", "TGI": "5.57 µM"}
{"COMPOUND": "Cc1ccc2[nH]c(C(=O)NN3C(=O)CSC34CCCCC4C)c(-c3ccccc3)c2c1 (stereo not given)", "TGI": "31.9 µM"}
{"COMPOUND": "COc1ccc(/C=C(\\Cl)c2ccc(OC)c(OC)c2)cc1OC", "TGI": "> 100 µM"}
{"COMPOUND": "Clc1cccc(Cl)c1C=NC12CC3CC(CC(C3)C1)C2", "TGI": "> 10 µM"}
{"COMPOUND": "CC1=CC(=O)c2c(O)cccc2C1=O", "TGI": "23.9 µM"}
{"COMPOUND": "O=C(CCN1CCCC1)Nc1ccc2c(NCc3ccc(F)cc3)c3ccccc3nc2c1", "TGI": "2.03 µM"}
{"COMPOUND": "CC1C2CC(CC(=O)N2)C1(C)C (stereo not given)", "TGI": "> 100 µM"}
{"COMPOUND": "CCOC(=O)C=C1CCN(C(=O)c2ccccc2)CC1", "TGI": "> 100 µM"}
{"COMPOUND": "CCOC(=O)/C(N=Nc1ccc(-n2c(C)nc3ccccc3c2=O)cc1)=C(/C)O", "TGI": "> 100 µM"}
{"COMPOUND": "O=c1n(/N=C/c2ccccc2)c(=O)n2n1C1C=CC2CC1", "TGI": "> 100 µM"}
{"COMPOUND": "CN(C)c1ccc(/C=C/C=C\\C2=CC(=C\\C=C/C=C3C=CC(=[N+](C)C)C=C3)/Sc3ccccc32)cc1", "TGI": "> 100 µM"}
{"COMPOUND": "CCOC(C[C@H](O)[C@H]1COC(=S)S1)OCC", "TGI": "> 100 µM"}
{"COMPOUND": "C=C(c1ccccc1)C1ON(C)CCc2cc(OC)c(OC)cc21 (stereo not given)", "TGI": "> 100 µM"}

From: PubChem BioAssay (NCI)
